- Test system: FXR-UAS-bla HEK293T cells
- assay name: Cell viability assay (CellTiter Glo) in the same well as FXR-bla
- measurement context: Table S3
reported endpoint: Cytotoxicity Efficacy (%)
Express it in %; write the number only.

| compound | assayed target | Cytotoxicity Efficacy (%) |
| --- | --- | --- |
| CO[C@H]1C[C@H](O[C@H]2[C@H](C)O[C@@H](O[C@@H]3/C(C)=C/C[C@@H]4C[C@@H](C[C@]5(C=C[C@H](C)[C@@H](C6CCCCC6)O5)O4)OC(=O)[C@@H]4C=C(C)[C@@H](O)[C@H]5OC/C(=C\C=C\[C@@H]3C)[C@]54O)C[C@@H]2OC)O[C@@H](C)[C@@H]1O | FXR-UAS-bla HEK293T cells | 116 |
| CCc1c(C(=O)NN2CCCCC2)nn(-c2ccc(Cl)cc2Cl)c1-c1ccc(Br)cc1 | FXR-UAS-bla HEK293T cells | 66 |
| CCOC(=O)[C@H](CCc1ccccc1)N[C@H]1CCc2ccccc2N(CC(=O)O)C1=O | FXR-UAS-bla HEK293T cells | 87 |

Cytotoxicity Efficacy for COC(=O)C1=C(C)NC(C)=C(C(=O)OCCN(C)Cc2ccccc2)C1c1cccc([N+](=O)[O-])c1 (stereo not shown) is 125

* * *

- assayed target: human FXR (Homo sapiens, UniProt Q96RI1)
- Sequence (Q96RI1 with tags, fused parts or gaps limits assumed): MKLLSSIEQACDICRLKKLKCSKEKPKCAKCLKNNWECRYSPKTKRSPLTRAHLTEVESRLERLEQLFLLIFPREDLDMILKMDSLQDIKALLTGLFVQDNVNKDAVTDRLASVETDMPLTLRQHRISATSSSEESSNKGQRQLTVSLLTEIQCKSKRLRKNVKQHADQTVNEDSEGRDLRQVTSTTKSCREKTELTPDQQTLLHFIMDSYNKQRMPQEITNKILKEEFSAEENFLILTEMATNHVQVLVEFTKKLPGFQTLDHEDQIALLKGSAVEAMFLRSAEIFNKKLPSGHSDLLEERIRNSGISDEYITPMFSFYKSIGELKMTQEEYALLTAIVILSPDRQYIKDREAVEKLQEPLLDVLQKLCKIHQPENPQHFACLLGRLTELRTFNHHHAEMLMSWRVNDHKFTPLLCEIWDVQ
- assay name: FXR-bla reporter gene assay, agonist mode (qHTS)
- measurement context: Table S1, primary screening; CDCA 100%
reported endpoint: FXR agonist mode Efficacy (%)
Use % as the unit, but write only the number.

Here are 2 compounds together with their reported answers.
| compound | assayed target | recorded value |
| --- | --- | --- |
| CCOC(=O)C1=C(C)NC(C)=C(C(=O)OCC)C1c1ccccc1/C=C/C(=O)OC(C)(C)C | human FXR (Homo sapiens, UniProt Q96RI1) | 70 |
| COC(=O)C1=C(C)NC(C)=C(C(=O)OCCN2CCN(C(c3ccccc3)c3ccccc3)CC2)C1c1cccc([N+](=O)[O-])c1 (stereo not drawn) | human FXR (Homo sapiens, UniProt Q96RI1) | 13 |

Now for another entry.
Lab note: C[C@H](CCC(=O)O)[C@H]1CC[C@H]2[C@@H]3CC[C@@H]4C[C@H](O)CC[C@]4(C)[C@H]3CC[C@]12C gave FXR agonist mode Efficacy of 20

* * *

- assayed target: peroxisome proliferator-activated receptor gamma (PPARγ) (Homo sapiens)
- Sequence (P37231 with tags, fused parts or gaps limits assumed): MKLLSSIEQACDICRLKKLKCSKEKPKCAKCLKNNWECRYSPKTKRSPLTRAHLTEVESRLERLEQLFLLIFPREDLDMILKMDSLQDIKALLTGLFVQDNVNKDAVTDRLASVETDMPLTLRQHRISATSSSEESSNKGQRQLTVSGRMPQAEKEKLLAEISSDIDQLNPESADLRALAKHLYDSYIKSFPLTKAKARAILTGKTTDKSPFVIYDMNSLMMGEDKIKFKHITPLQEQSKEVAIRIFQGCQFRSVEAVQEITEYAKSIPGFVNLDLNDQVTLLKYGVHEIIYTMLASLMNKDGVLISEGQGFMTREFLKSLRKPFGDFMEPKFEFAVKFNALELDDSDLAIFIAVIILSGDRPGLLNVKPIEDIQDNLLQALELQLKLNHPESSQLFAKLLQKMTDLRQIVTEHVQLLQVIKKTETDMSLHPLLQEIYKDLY
- assay name: PPARγ-bla reporter gene assay (agonist and antagonist modes)
reported endpoint: PPARγ activity

| cpd smiles | recorded value |
| --- | --- |
| CC(=O)[C@]1(O)Cc2c(O)c3c(c(O)c2[C@@H](O[C@H]2C[C@H](N)[C@H](O)[C@H](C)O2)C1)C(=O)c1ccccc1C3=O | antagonist response |
| COc1cccc2c1C(=O)c1c(O)c3c(c(O)c1C2=O)C[C@@](O)(C(=O)CO)C[C@@H]3O[C@H]1C[C@H](N)[C@H](O[C@@H]2CCCCO2)[C@H](C)O1 | antagonist response |
| COc1cccc2c1C(=O)c1c(O)c3c(c(O)c1C2=O)C[C@@](O)(C(C)=O)C[C@@H]3O[C@H]1C[C@H](N)[C@H](O)[C@H](C)O1 | antagonist response |

* * *

List of IC50 values.
- assayed target: human FXR (Homo sapiens, UniProt Q96RI1)
- assay name: FXR-bla reporter gene assay, antagonist mode (CDCA-induced transactivation)
Your answer should be a plain number; it is taken to be in µM.

Known IC50 results, listed for orientation:
| molecule | assayed target | IC50, µM |
| --- | --- | --- |
| CC[C@]1(O)C[C@@H]2CN(CCc3c([nH]c4ccccc34)[C@@](C(=O)OC)(c3cc4c(cc3OC)N(C)[C@H]3[C@@](O)(C(=O)OC)[C@H](OC(C)=O)[C@]5(CC)C=CCN6CC[C@]43[C@@H]65)C2)C1 | human FXR (Homo sapiens, UniProt Q96RI1) | 0.1 |
| CCOC(=O)C1=C(C)NC(C)=C(C(=O)OCC)C1c1ccccc1/C=C/C(=O)OC(C)(C)C | human FXR (Homo sapiens, UniProt Q96RI1) | 32.3 |

// IC50 (human FXR (Homo sapiens, UniProt Q96RI1)) for CC(C)=CC1C(C(=O)OCc2cccc(Oc3ccccc3)c2)C1(C)C (stereo not drawn) = 25.4

* * *

- assayed target: human FXR (Homo sapiens)
- assay name: FXR-bla reporter gene assay, antagonist mode (CDCA-induced transactivation)
Some compounds, each annotated with its measured FXR antagonist mode Efficacy.
Give the value in % but do not write % after it.

| cpd smiles | FXR antagonist mode Efficacy / % |
| --- | --- |
| C[C@H]1O[C@@H](O[C@H]2[C@@H](O)C[C@H](O[C@H]3[C@@H](O)C[C@H](O[C@H]4CC[C@@]5(C)[C@H](CC[C@@H]6[C@@H]5C[C@@H](O)[C@]5(C)[C@@H](C7=CC(=O)OC7)CC[C@]65O)C4)O[C@@H]3C)O[C@@H]2C)C[C@H](O)[C@@H]1O | 92 |

Measured FXR antagonist mode Efficacy, COc1cccc2c1C(=O)c1c(O)c3c(c(O)c1C2=O)C[C@@](O)(C(=O)CO)C[C@@H]3O[C@H]1C[C@H](N)[C@H](O[C@@H]2CCCCO2)[C@H](C)O1 : 60

Value of FXR antagonist mode Efficacy reported for the compound CCCCNC(=O)n1c(NC(=O)OC)nc2ccccc21 is 21

* * *

Overview of recorded pIC50 for various compounds
- Tested on: FXR-UAS-bla HEK293T cells
- assay name: Cell viability assay (CellTiter Glo) in the same well as FXR-bla
- measurement context: read-out: Cytotoxicity IC50; Table S1, primary screening
Answer as the number alone; pIC50 is minus log10 of concentration in mol/L.

| compound | pIC50 |
| --- | --- |
| CC[C@H](C)[C@H]1O[C@]2(CC[C@@H]1C)C[C@@H]1C[C@@H](C/C=C(\C)[C@@H](O[C@H]3C[C@H](OC)[C@@H](O[C@H]4C[C@H](OC)[C@@H](O)[C@H](C)O4)[C@H](C)O3)[C@@H](C)/C=C/C=C3\CO[C@@H]4[C@H](O)C(C)=C[C@@H](C(=O)O1)[C@]34O)O2 [Ivermectin B1a] | 4.85 |

Please examine the following record next.
// CO[C@H]1C[C@H](O[C@H]2[C@H](C)O[C@@H](O[C@@H]3/C(C)=C/C[C@@H]4C[C@@H](C[C@]5(C=C[C@H](C)[C@@H](C6CCCCC6)O5)O4)OC(=O)[C@@H]4C=C(C)[C@@H](O)[C@H]5OC/C(=C\C=C\[C@@H]3C)[C@]54O)C[C@@H]2OC)O[C@@H](C)[C@@H]1O [Doramectin] : pIC50 value = 4.96

* * *

- System: FXR-UAS-bla HEK293T cells
- assay name: Cell viability assay (CellTiter Glo) in the same well as FXR-bla
- measurement context: Table S3
reported endpoint: Cytotoxicity Efficacy
Express your answer as a number followed by its unit.

Below, 2 compounds whose answers are already recorded.
| cpd smiles | Cytotoxicity Efficacy |
| --- | --- |
| CC[C@H](C)[C@H]1O[C@]2(CC[C@@H]1C)C[C@@H]1C[C@@H](C/C=C(\C)[C@@H](O[C@H]3C[C@H](OC)[C@@H](O[C@H]4C[C@H](OC)[C@@H](O)[C@H](C)O4)[C@H](C)O3)[C@@H](C)/C=C/C=C3\CO[C@@H]4[C@H](O)C(C)=C[C@@H](C(=O)O1)[C@]34O)O2 | 124 ± 6% |
| C#C[C@]1(O)CC[C@H]2[C@@H]3CCc4cc(O)ccc4[C@H]3CC[C@@]21C | 36 ± 47% |

With those in mind, consider the next compound.
# Cytotoxicity Efficacy (compound: CCC1=C[C@@H]2CN(C1)Cc1c([nH]c3ccccc13)[C@@](C(=O)OC)(c1cc3c(cc1OC)N(C)[C@H]1[C@@](O)(C(=O)OC)[C@H](OC(C)=O)[C@]4(CC)C=CCN5CC[C@]31[C@@H]54)C2 ) is 41 ± 5%

* * *

# FXR agonist mode Efficacy annotations
- assayed target: human FXR (Homo sapiens, UniProt Q96RI1)
- assay name: FXR-bla reporter gene assay, agonist mode (qHTS)
Reply numerically in %, unit not repeated.

| compound | assayed target | reported endpoint | recorded value |
| --- | --- | --- | --- |
| COc1cccc2c1C(=O)c1c(O)c3c(c(O)c1C2=O)C[C@@](O)(C(=O)CO)C[C@@H]3O[C@H]1C[C@H](N)[C@H](O[C@@H]2CCCCO2)[C@H](C)O1 [Pirarubicin] | human FXR (Homo sapiens, UniProt Q96RI1) | FXR agonist mode Efficacy | 20 |
| CO[C@H]1C[C@H](O[C@H]2[C@H](C)O[C@@H](O[C@@H]3/C(C)=C/C[C@@H]4C[C@@H](C[C@]5(C=C[C@H](C)[C@@H](C6CCCCC6)O5)O4)OC(=O)[C@@H]4C=C(C)[C@@H](O)[C@H]5OC/C(=C\C=C\[C@@H]3C)[C@]54O)C[C@@H]2OC)O[C@@H](C)[C@@H]1O [Doramectin] | human FXR (Homo sapiens, UniProt Q96RI1) | FXR agonist mode Efficacy | 62 |

Now take the following compound into account.
What the record says about CO[C@H]1C[C@H](O[C@@H]2/C(C)=C/C[C@@H]3C[C@@H](C[C@]4(CC[C@H](C)[C@@H](C5CCCCC5)O4)O3)OC(=O)[C@@H]3C=C(C)/C(=N/O)[C@H]4OC/C(=C\C=C\[C@@H]2C)[C@]43O)O[C@@H](C)[C@@H]1O [Selamectin] : FXR agonist mode Efficacy is 68
